From: patent US8642623B2

Would you kindly list pKi for each of these molecules?
- measured_on: vanilloid receptor 1 (VR1/TRPV1) of the rat species (Rattus norvegicus)
- Construct: The spinal column is removed from decapitated rats
- Sequence (O35433 whole entry): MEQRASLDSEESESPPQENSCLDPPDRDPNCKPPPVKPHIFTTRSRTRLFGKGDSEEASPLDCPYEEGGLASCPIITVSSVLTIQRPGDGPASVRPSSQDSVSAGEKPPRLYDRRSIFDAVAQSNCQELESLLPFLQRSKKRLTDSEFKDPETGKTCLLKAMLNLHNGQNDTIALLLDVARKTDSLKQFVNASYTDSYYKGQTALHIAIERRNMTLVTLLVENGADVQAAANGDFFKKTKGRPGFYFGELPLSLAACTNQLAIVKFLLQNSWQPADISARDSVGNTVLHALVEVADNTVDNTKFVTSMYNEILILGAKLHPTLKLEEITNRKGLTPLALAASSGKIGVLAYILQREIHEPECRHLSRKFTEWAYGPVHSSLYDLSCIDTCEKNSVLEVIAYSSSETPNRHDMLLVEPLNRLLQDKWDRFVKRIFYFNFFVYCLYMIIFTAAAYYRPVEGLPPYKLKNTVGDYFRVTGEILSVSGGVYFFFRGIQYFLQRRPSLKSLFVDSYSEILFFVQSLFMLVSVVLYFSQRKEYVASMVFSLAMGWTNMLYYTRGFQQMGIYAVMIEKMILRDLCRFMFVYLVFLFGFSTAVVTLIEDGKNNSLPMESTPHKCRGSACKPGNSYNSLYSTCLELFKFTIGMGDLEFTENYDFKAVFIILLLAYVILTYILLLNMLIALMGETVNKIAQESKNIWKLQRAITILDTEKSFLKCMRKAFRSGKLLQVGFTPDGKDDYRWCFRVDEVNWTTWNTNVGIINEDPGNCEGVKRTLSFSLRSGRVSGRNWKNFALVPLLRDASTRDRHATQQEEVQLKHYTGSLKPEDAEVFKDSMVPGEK
- experimental_details: FLIPR Ca2+ influx assay on rat dorsal root ganglia cells, capsaicin stimulus (Pharmacological method I)
- applied_conditions: capsaicin 100 nM stimulus, Ki from IC50 by Cheng-Prusoff
pKi here: minus log base 10 of the concentration, concentration in moles per litre.

Fill in pKi for record CC(C(=O)NCc1ccc(C(C)(C)C)cc1SC1CCCCC1)c1ccc(N(C)S(C)(=O)=O)c(F)c1 (stereo not shown) [Example 15] 8.12

Fill in pKi for record CC(C(=O)NCc1ccc(C(C)(C)C)nc1SC1CCCCC1)c1ccc(N(C)S(C)(=O)=O)c(F)c1 (stereo not shown) [Example 11] 7.77

Fill in pKi for record CC1CCN(c2nc(C(C)(C)C)ccc2CNC(=O)C(C)c2ccc(N(C)S(C)(=O)=O)c(F)c2)CC1 (stereo not shown) [Example 10] 8.55

Fill in pKi for record CCC(=O)N(c1ccccc1)C1CCN(c2nc(C(F)(F)F)ccc2CNC(=O)C(C)c2ccc(N(C(=O)CC)S(C)(=O)=O)c(F)c2)CC1 (stereo not shown) [Example 1] 7.71

Fill in pKi for record CC1CCN(c2cc(C(F)(F)F)ccc2CNC(=O)C(C)c2ccc(N(C)S(C)(=O)=O)c(F)c2)CC1 (stereo not shown) [Example 12] 8.30

Fill in pKi for record CC(C(=O)NCc1ccc(C(F)(F)F)cc1SC1CCCCC1)c1ccc(N(C)S(C)(=O)=O)c(F)c1 (stereo not shown) [Example 13] 8.28

Fill in pKi for record CCN(c1ccc(C(C)C(=O)NCc2ccc(C(F)(F)F)nc2N2CCC(C)CC2)cc1F)S(C)(=O)=O (stereo not shown) [Example 9] 7.20

----------
- measured_on: vanilloid receptor 1 (VR1/TRPV1 receptor) (Homo sapiens)
- Sequence (Q8NER1 whole entry): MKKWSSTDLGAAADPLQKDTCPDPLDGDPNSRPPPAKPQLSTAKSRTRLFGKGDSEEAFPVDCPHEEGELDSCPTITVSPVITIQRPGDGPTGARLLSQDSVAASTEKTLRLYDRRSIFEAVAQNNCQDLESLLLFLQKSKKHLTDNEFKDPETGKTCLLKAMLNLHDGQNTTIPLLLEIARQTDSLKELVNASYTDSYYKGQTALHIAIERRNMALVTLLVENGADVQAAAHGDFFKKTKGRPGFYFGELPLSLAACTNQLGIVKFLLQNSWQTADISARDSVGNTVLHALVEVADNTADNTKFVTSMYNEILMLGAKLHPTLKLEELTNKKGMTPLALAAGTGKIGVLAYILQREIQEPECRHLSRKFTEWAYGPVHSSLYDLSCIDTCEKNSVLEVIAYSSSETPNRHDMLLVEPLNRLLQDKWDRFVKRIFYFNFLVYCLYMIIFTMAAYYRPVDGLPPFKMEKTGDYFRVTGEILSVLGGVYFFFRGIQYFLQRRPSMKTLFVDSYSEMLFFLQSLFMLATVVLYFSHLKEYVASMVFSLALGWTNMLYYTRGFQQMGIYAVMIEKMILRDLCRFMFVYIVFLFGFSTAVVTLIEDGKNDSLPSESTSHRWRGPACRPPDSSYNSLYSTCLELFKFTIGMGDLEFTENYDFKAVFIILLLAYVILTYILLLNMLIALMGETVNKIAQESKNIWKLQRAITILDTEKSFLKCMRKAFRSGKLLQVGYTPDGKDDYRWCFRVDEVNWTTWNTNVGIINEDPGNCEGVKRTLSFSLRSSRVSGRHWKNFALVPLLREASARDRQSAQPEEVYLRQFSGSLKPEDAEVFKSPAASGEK
- experimental_details: Human VR1/TRPV1 receptor inhibition after pH stimulus
- Format: cell-based
- applied_conditions: compound 5 μM
Would you kindly list inhibition at 5 µM for each of these compounds?
Field: value (include unit after the number)

Fill in inhibition at 5 µM for record CC1CCN(c2cc(C(F)(F)F)ccc2CNC(=O)C(C)c2ccc(N(C)S(C)(=O)=O)c(F)c2)CC1 (stereo not drawn) 0%

Fill in inhibition at 5 µM for record CC(C(=O)NCc1ccc(C(C)(C)C)cc1SC1CCCCC1)c1ccc(N(C)S(C)(=O)=O)c(F)c1 (stereo not drawn) 6%

Fill in inhibition at 5 µM for record CC1CCN(c2cc(C(C)(C)C)ccc2CNC(=O)C(C)c2ccc(N(C)S(C)(=O)=O)c(F)c2)CC1 (stereo not drawn) 9%

Fill in inhibition at 5 µM for record CC1CCN(c2nc(C(F)(F)F)ccc2CNC(=O)C(C)c2ccc(N(C)S(C)(=O)=O)c(F)c2)CC1 (stereo not drawn) 8%

Fill in inhibition at 5 µM for record CC(C(=O)NCc1ccc(C(F)(F)F)nc1SC1CCCCC1)c1ccc(N(C)S(C)(=O)=O)c(F)c1 (stereo not drawn) 0%

Fill in inhibition at 5 µM for record CCN(c1ccc([C@H](C)C(=O)NCc2ccc(C(C)(C)C)cc2)cc1F)S(C)(=O)=O 0%

Fill in inhibition at 5 µM for record CC(C(=O)NCc1ccc(C(C)(C)C)cc1)c1ccc(N(C)S(C)(=O)=O)c(F)c1 (stereo not drawn) 0%

Fill in inhibition at 5 µM for record CC1CCN(c2nc(C(C)(C)C)ccc2CNC(=O)C(C)c2ccc(N(C)S(C)(=O)=O)c(F)c2)CC1 (stereo not drawn) 0%

Fill in inhibition at 5 µM for record CCN(c1ccc(C(C)C(=O)NCc2ccc(C(F)(F)F)nc2N2CCC(C)CC2)cc1F)S(C)(=O)=O (stereo not drawn) 11%
